- Experimental Target: Solute carrier organic anion transporter family member 1B3 (Homo sapiens)
- Experiment Summary: Inhibition of human liver OATP1B3 expressed in HEK293 Flp-In cells assessed as reduction in [3H]E17-betaG uptake at 20 uM incubated for 5 mins by scintillation counting
- Experimental Conditions: hek293, 5 min
# label = Met if INH < 30% else Not met

| Molecule | Assigned Class |
| --- | --- |
| CC(=O)[C@H]1CC[C@H]2[C@@H]3CCC4=CC(=O)CC[C@]4(C)[C@H]3CC[C@]12C [PROGESTERONE] | Not met |
| O=C1[C@H](CC[C@H](O)c2ccc(F)cc2)[C@@H](c2ccc(O)cc2)N1c1ccc(F)cc1 [EZETIMIBE] | Met |
| CC(=O)Oc1ccc2c(c1)Oc1cc(OC(C)=O)ccc1C21OC(=O)c2cc(C(=O)O)ccc21 | Not met |
| CC[C@H](C)C(=O)O[C@H]1C[C@H](O)C=C2C=C[C@H](C)[C@H](CC[C@@H](O)C[C@@H](O)CC(=O)O)[C@H]21 [PRAVASTATIN] | Met |
| CCc1cccc2cc(C(O)CNC(C)(C)C)oc12 (configuration not stated) [BUFURALOL] | Met |
| COc1ccc(CCN2CCC(Nc3nc4ccccc4n3Cc3ccc(F)cc3)CC2)cc1 [ASTEMIZOLE] | Met |
| COc1ccc2c(c1)c(CC(=O)O)c(C)n2C(=O)c1ccc(Cl)cc1 [INDOMETHACIN] | Not met |
| CC(C)n1c(/C=C/C(O)CC(O)CC(=O)O)c(-c2ccc(F)cc2)c2ccccc21 (configuration not stated) [FLUVASTATIN] | Not met |

Hello, is INH of the following molecule strictly smaller than 30%? C[C@H](CCC(=O)NCCS(=O)(=O)O)[C@H]1CC[C@H]2[C@@H]3CC[C@@H]4C[C@H](O)CC[C@]4(C)[C@H]3CC[C@]12C [TAUROLITHOCHOLIC ACID]
Not met

Hello, is INH of the following molecule strictly smaller than 30%? O=c1ccc2ccccc2o1 [COUMARIN]
Not met

----------
- Experimental Target: UniProtKB O94956
- Sequence (O94956 whole entry): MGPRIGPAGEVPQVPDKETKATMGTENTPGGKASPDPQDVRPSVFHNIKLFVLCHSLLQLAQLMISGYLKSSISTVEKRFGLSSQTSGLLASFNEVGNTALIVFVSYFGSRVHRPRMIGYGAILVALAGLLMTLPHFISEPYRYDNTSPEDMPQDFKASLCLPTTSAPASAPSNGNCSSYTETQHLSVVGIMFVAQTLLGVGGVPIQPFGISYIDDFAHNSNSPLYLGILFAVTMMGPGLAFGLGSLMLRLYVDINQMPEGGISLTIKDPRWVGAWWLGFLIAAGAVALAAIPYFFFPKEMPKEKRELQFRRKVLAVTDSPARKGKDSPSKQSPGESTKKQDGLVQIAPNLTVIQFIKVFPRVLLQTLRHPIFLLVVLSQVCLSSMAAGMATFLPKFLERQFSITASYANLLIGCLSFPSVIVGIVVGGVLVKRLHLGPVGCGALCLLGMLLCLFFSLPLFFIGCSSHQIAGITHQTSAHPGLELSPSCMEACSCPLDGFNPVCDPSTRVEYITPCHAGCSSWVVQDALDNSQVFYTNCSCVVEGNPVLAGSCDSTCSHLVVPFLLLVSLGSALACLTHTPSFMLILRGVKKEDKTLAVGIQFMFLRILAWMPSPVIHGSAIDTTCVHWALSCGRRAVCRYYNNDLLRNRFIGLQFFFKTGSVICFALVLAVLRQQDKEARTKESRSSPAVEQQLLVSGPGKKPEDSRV
- Experiment Summary: Inhibition of human liver OATP2B1 expressed in HEK293 Flp-In cells assessed as reduction in [3H]E3S uptake at 20 uM incubated for 5 mins by scintillation counting
- Experimental Conditions: hek293, 5 min
Reported Endpoint: INH (%)
State the answer as a number, implicitly in %.

| Molecule | Unit Annotation | Readout Value |
| --- | --- | --- |
| CCOC(=O)C1=C(C)NC(C)=C(C(=O)OC)C1c1cccc(Cl)c1Cl (configuration not stated) [FELODIPINE] | % | 21.4 |

Would you mind telling me what INH value was observed for `C[n+]1cc2c3c(ccc2c2ccc4cc5c(cc4c21)OCO5)OCO3` ?
15

Would you mind telling me what INH value was observed for CCC(C)n1ncn(-c2ccc(N3CCN(c4ccc(OCC5COC(Cn6cncn6)(c6ccc(Cl)cc6Cl)O5)cc4)CC3)cc2)c1=O (configuration not stated) [ITRACONAZOLE] ?
59.8

Would you mind telling me what INH value was observed for Nc1nnc(-c2cccc(Cl)c2Cl)c(N)n1 [LAMOTRIGINE] ?
13.6

Would you mind telling me what INH value was observed for COc1cc2nc(N3CCN(C(=O)C4COc5ccccc5O4)CC3)nc(N)c2cc1OC (configuration not stated) [DOXAZOSIN] ?
45.8

Would you mind telling me what INH value was observed for CNCCC(Oc1ccc(C(F)(F)F)cc1)c1ccccc1 (configuration not stated) [FLUOXETINE] ?
22.6

Would you mind telling me what INH value was observed for CCc1nn(CCCN2CCN(c3cccc(Cl)c3)CC2)c(=O)n1CCOc1ccccc1 [NEFAZODONE] ?
61.5

Would you mind telling me what INH value was observed for `CCOC(=O)[C@H](CCc1ccccc1)N[C@@H](C)C(=O)N1CCC[C@H]1C(=O)O` ?
19.7

Would you mind telling me what INH value was observed for C[C@H](Cn1cnc2c(N)ncnc21)OCP(=O)(O)O [TENOFOVIR ANHYDROUS] ?
23.3

Would you mind telling me what INH value was observed for C[C@H](CCC(=O)NCCS(=O)(=O)O)[C@H]1CC[C@H]2[C@@H]3[C@H](O)C[C@@H]4C[C@H](O)CC[C@]4(C)[C@H]3CC[C@]12C [TAUROCHENODEOXYCHOLATE] ?
47.2

Would you mind telling me what INH value was observed for COc1c2occc2cc2ccc(=O)oc12 [METHOXSALEN] ?
-1.6

Would you mind telling me what INH value was observed for CN(C)C(=O)C(CCN1CCC(O)(c2ccc(Cl)cc2)CC1)(c1ccccc1)c1ccccc1 [LOPERAMIDE] ?
19.6

----------
- Experimental Target: UniProt:Q9Y6L6
- Sequence (Q9Y6L6 whole entry): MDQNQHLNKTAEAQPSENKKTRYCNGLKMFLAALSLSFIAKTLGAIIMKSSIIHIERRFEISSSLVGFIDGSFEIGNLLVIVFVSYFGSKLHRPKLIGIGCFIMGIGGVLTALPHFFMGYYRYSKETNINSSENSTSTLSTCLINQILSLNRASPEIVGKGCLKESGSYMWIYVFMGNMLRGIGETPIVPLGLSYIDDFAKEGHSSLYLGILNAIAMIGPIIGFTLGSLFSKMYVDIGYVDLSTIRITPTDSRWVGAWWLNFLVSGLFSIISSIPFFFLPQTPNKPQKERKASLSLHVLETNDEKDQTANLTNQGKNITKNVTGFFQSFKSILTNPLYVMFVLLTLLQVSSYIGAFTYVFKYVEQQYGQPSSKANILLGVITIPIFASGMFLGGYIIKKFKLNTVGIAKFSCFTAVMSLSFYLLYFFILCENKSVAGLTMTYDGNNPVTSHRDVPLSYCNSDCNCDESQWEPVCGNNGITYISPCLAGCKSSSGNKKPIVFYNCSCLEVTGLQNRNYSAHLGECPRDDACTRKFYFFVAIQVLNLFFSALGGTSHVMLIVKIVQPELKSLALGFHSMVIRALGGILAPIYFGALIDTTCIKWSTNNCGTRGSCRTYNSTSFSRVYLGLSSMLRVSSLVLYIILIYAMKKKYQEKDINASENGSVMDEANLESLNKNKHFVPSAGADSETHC
- Experiment Summary: Inhibition of human liver OATP1B1 expressed in HEK293 Flp-In cells assessed as reduction in E17-betaG uptake at 20 uM by scintillation counting
- Experimental Conditions: hek293, 20 µM
Reported Endpoint: INH
Answer with the figure and its unit, nothing else.

| Molecule | INH |
| --- | --- |
| CN1CCC[C@H]1c1cccnc1 [NICOTINE] | 6.9% |

Would you mind telling me what INH value was observed for CC(C)c1nc(N(C)S(C)(=O)=O)nc(-c2ccc(F)cc2)c1/C=C/[C@@H](O)C[C@@H](O)CC(=O)O [ROSUVASTATIN] ?
71.4%

Would you mind telling me what INH value was observed for CCCCNC(=O)NS(=O)(=O)c1ccc(C)cc1 [TOLBUTAMIDE] ?
9.1%

Would you mind telling me what INH value was observed for O=c1ccc2ccccc2o1 [COUMARIN] ?
7.6%

Would you mind telling me what INH value was observed for CO[C@@H]1[C@@H](OC(N)=O)[C@@H](O)[C@H](Oc2ccc3c(O)c(NC(=O)c4ccc(O)c(CC=C(C)C)c4)c(=O)oc3c2C)OC1(C)C [NOVOBIOCIN] ?
58.1%

Would you mind telling me what INH value was observed for C[C@]12CC[C@@H]3c4ccc(O)cc4CC[C@H]3[C@@H]1CC[C@@H]2O [ESTRADIOL] ?
102.8%

Would you mind telling me what INH value was observed for CN(C)CCC=C1c2ccccc2CCc2ccccc21 [AMITRIPTYLINE] ?
10.5%

Would you mind telling me what INH value was observed for CN(C)CCCN1c2ccccc2CCc2ccccc21 [IMIPRAMINE] ?
26.9%

Would you mind telling me what INH value was observed for CC(NCCC(c1ccccc1)c1ccccc1)c1ccccc1 (centres undefined) [FENDILINE] ?
15%

----------
- Experimental Target: Solute carrier organic anion transporter family member 1B3 (Homo sapiens, UniProt Q9NPD5)
- Sequence (Q9NPD5 whole entry): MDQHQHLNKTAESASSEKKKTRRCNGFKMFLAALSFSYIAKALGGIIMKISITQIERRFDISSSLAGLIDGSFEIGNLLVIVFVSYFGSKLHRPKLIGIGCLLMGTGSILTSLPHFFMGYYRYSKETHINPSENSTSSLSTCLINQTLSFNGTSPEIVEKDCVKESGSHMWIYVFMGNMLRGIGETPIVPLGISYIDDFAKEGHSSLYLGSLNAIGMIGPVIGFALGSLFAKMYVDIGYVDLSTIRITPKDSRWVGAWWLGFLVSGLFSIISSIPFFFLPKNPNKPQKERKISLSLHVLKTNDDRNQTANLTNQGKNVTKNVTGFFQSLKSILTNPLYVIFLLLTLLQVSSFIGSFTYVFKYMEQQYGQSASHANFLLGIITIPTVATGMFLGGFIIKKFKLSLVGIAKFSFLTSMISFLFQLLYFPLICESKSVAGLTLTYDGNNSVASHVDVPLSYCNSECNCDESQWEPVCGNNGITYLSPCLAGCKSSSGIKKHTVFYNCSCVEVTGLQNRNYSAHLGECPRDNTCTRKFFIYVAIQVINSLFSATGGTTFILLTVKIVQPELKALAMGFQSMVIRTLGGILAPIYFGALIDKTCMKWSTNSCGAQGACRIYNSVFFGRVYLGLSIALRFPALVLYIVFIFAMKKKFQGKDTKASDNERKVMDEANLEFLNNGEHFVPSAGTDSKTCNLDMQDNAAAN
- Experiment Summary: Inhibition of human liver OATP1B3 expressed in HEK293 Flp-In cells assessed as reduction in [3H]E17-betaG uptake at 20 uM incubated for 5 mins by scintillation counting
- Experimental Conditions: hek293, 5 min
Listed here: items and their measured INH.
State the answer as a number, implicitly in %.

Worked examples follow.
| Molecule | Unit Annotation | INH |
| --- | --- | --- |
| C[C@H](CCC(=O)NCCS(=O)(=O)O)[C@H]1CC[C@H]2[C@@H]3CC[C@@H]4C[C@H](O)CC[C@]4(C)[C@H]3C[C@H](O)[C@]12C [TAURODEOXYCHOLIC ACID] | % | 61.4 |
| COc1ccc([C@@H]2Sc3ccccc3N(CCN(C)C)C(=O)[C@@H]2OC(C)=O)cc1 [DILTIAZEM] | % | 4.1 |
| CCC(C)(C)C(=O)O[C@H]1C[C@@H](C)C=C2C=C[C@H](C)[C@H](CC[C@@H]3C[C@@H](O)CC(=O)O3)[C@H]21 [SIMVASTATIN] | % | 29.3 |

Please find the next molecule below.
Would you mind telling me what INH value was observed for COc1cc(Cc2cnc(N)nc2N)cc(OC)c1OC [TRIMETHOPRIM] ?
18.8
